Measured values drawn from ChEMBL document CHEMBL2169835 for this set.

- TEST DETAILS: Therapeutic index, ratio of IC50 for rat L6 cells to IC50 for Leishmania donovani
- Format: cell-based
- TEST PARAMETERS: L6 cells (cytotoxicity) versus Leishmania donovani, read-out: Ratio IC50

- SMILES: "COc1ccc(-c2cc(=O)c3c(O)cc(O)c(-c4cc(-c5cc(=O)c6c(O)cc(O)cc6o5)ccc4OC)c3o2)cc1"
  selectivity ratio: 5.8

* * *

pIC50 by entry:
- Tested on: Leishmania donovani
- TEST DETAILS: Antimicrobial activity against SSG-resistant Leishmania donovani 39 promastigote assessed as inhibition of parasite growth after 72 hrs by MTS assay
- Assay type: functional, organism-based
- TEST PARAMETERS: Leishmania donovani, 39, 72 h
pIC50: −log10 of the molar value.
READOUT TYPE: pIC50

- COMPOUND: "O=c1cc(-c2ccc(OCCOCCOCCOCCOCCOc3ccc(-c4cc(=O)c5c(O)cc(O)cc5o4)cc3)cc2)oc2cc(O)cc(O)c12"
  ASSAY SYSTEM: "Leishmania donovani"
  CENSORING QUALIFIER: "="
  READOUT NUMBER: 5.74
- COMPOUND: "O=c1cc(-c2ccc(OCCOCCNCCOCCOc3ccc(-c4cc(=O)c5ccccc5o4)cc3)cc2)oc2ccccc12"
  ASSAY SYSTEM: "Leishmania donovani"
  CENSORING QUALIFIER: "="
  READOUT NUMBER: 5.64
- COMPOUND: "O=c1cc(-c2ccc(OCCOCCN(CCOCCOc3ccc(-c4cc(=O)c5ccccc5o4)cc3)Cc3ccccc3)cc2)oc2ccccc12"
  ASSAY SYSTEM: "Leishmania donovani"
  CENSORING QUALIFIER: "="
  READOUT NUMBER: 4.91
- COMPOUND: "Cc1c(-c2ccc(OCCOCCOCCOCCOCCOCCOc3ccc(-c4oc5ccccc5c(=O)c4C)cc3)cc2)oc2ccccc2c1=O"
  ASSAY SYSTEM: "Leishmania donovani"
  CENSORING QUALIFIER: "="
  READOUT NUMBER: 5.55
- COMPOUND: "CCc1ccc2oc(-c3ccc(OCCOCCOCCOCCOc4ccc(-c5cc(=O)c6cc(CC)ccc6o5)cc4)cc3)cc(=O)c2c1"
  ASSAY SYSTEM: "Leishmania donovani"
  CENSORING QUALIFIER: "<"
  READOUT NUMBER: 4.62
- COMPOUND: "C[C@@H]1[C@H](O)[C@@H](C)/C=C/C=C/C=C/C=C/C=C/C=C/C=C/[C@H](O[C@@H]2O[C@H](C)[C@@H](O)[C@H](N)[C@@H]2O)C[C@@H]2O[C@](O)(C[C@@H](O)C[C@@H](O)[C@H](O)CC[C@@H](O)C[C@@H](O)CC(=O)O[C@H]1C)C[C@H](O)[C@H]2C(=O)O [AMPHOTERICIN B]"
  ASSAY SYSTEM: "Leishmania donovani"
  CENSORING QUALIFIER: "="
  READOUT NUMBER: 7.02
- COMPOUND: "COc1cc(-c2cc(=O)c3ccccc3o2)ccc1OCCOCCN(CCOCCOc1ccc(-c2cc(=O)c3ccccc3o2)cc1OC)Cc1ccncc1"
  ASSAY SYSTEM: "Leishmania donovani"
  CENSORING QUALIFIER: "="
  READOUT NUMBER: 6.16
- COMPOUND: "Cc1c(-c2ccc(OCCOCCOCCOCCOc3ccc(-c4oc5ccccc5c(=O)c4C)cc3)cc2)oc2ccccc2c1=O"
  ASSAY SYSTEM: "Leishmania donovani"
  CENSORING QUALIFIER: "<"
  READOUT NUMBER: 4.72
- COMPOUND: "O=c1cc(-c2ccc(OCCOCCOCCOCCOc3ccc(-c4cc(=O)c5c(O)cc(O)cc5o4)cc3)cc2)oc2cc(O)cc(O)c12"
  ASSAY SYSTEM: "Leishmania donovani"
  CENSORING QUALIFIER: "="
  READOUT NUMBER: 5.72
- COMPOUND: "O=c1cc(-c2ccc(OCCOCCOc3ccc(-c4cc(=O)c5ccccc5o4)cc3)cc2)oc2ccccc12"
  ASSAY SYSTEM: "Leishmania donovani"
  CENSORING QUALIFIER: "<"
  READOUT NUMBER: 4.62
- COMPOUND: "O=c1c(O)c(-c2ccc(OCCOCCOCCOCCOc3ccc(-c4oc5ccccc5c(=O)c4O)cc3)cc2)oc2ccccc12"
  ASSAY SYSTEM: "Leishmania donovani"
  CENSORING QUALIFIER: "<"
  READOUT NUMBER: 4.62
- COMPOUND: "CC(C)(C)OC(=O)N(CCOCCOc1ccc(-c2cc(=O)c3ccccc3o2)cc1)CCOCCOc1ccc(-c2cc(=O)c3ccccc3o2)cc1"
  ASSAY SYSTEM: "Leishmania donovani"
  CENSORING QUALIFIER: "="
  READOUT NUMBER: 5.80
- COMPOUND: "O=c1cc(-c2ccc(OCCOCCN(CCOCCOc3ccc(-c4cc(=O)c5cc(F)ccc5o4)cc3)Cc3ccncc3)cc2)oc2ccc(F)cc12"
  ASSAY SYSTEM: "Leishmania donovani"
  CENSORING QUALIFIER: "="
  READOUT NUMBER: 6.44
